- Measurement Notes: UV-Vis absorption and emission maxima given with the synthesis examples
- Assay type: physicochemical
- Condition Label: UV-Vis (PBS)
Structures can show the parent of a compound that is named as a salt.
Attribute Measured: λmax (nm)

Molecule	Attribute Measured	Unit Of Measurement	Measured Value
Nc1cc2oc(=O)c3c(c2cc1S(=O)(=O)O)C(C(CC(=O)O)S(=O)(=O)O)CC3 (centres unmarked) [V07-09142, bis sodium salt]	λmax	nm	349
Nc1ccc2c3c(c(=O)oc2c1S(=O)(=O)O)CCC3C(CC(=O)NCCCC(=O)ON1C(=O)CCC1=O)S(=O)(=O)O (centres unmarked)	λmax	nm	352
Nc1c(S(=O)(=O)O)cc2c3c(c(=O)oc2c1S(=O)(=O)O)CCC3C(CC(=O)O)S(=O)(=O)[O-].[Na+] (centres unmarked)	λmax	nm	350
Nc1ccc2c3c(c(=O)oc2c1S(=O)(=O)O)CCC3C(CC(=O)O)S(=O)(=O)[O-].[Na+] (centres unmarked)	λmax	nm	352
Nc1ccc2c3c(c(=O)oc2c1S(=O)(=O)O)CCC3C(CC(=O)NCCCC(=O)O)S(=O)(=O)O (centres unmarked)	λmax	nm	352
